Data origin, for the record: ChEMBL document CHEMBL3132758

Examples of compounds with documented Ki follow.
- assayExplanation: Inhibition of Houston virus recombinant His6-tagged protease using EDANS-EPDFHLQGPEDLAK-Dabcyl as substrate preincubated for 45 mins followed by substrate addition measured every 1 min for 30 mins by FRET analysis
- Parameters: species or system genotype 2
Non-standard residues stand in square brackets, D forms with d. Residues, ends and D or L forms follow the SMILES beside them. *: point of attachment. Cbz = O=C(OCc1ccccc1)*; Dap = NC[C@H](N)C(=O)O
Please respond with the number in µM and leave the unit unwritten.

Solved entries (count: 3):
CC(C)C[C@H](NC(=O)[C@H](C)NC(=O)OCc1ccccc1)C(=O)N[C@H](C=O)CCC(=O)N(C)C (Cbz-Ala-Leu-Glu(NMe2)-aldehyde) : 4.6
CC(C)C[C@H](NC(=O)OCc1ccccc1)C(=O)N[C@@H](Cc1ccccc1)C(=O)N[C@H](C=O)CCC(=O)N(C)C (Cbz-Leu-Phe-Glu(NMe2)-aldehyde) : 7.5
CC(=O)NC[C@@H](C=O)NC(=O)[C@H](Cc1ccccc1)NC(=O)[C@H](CC(C)C)NC(=O)OCc1ccccc1 (Cbz-Leu-Phe-[Dap](Ac)-aldehyde) : 14

For the next question, use this compound.
Which measured Ki value corresponds to CC(C)C[C@H](NC(=O)[C@H](CCC(N)=O)NC(=O)OCc1ccccc1)C(=O)N[C@H](C=O)CCC(=O)N(C)C (Cbz-Gln-Leu-Glu(NMe2)-aldehyde) ? 4.3

* * *

- assayExplanation: Selectivity ratio of Ki for Houston virus recombinant His6-tagged protease to Ki for Norwalk virus recombinant His6-tagged protease
Non-standard residues stand in square brackets, D forms with d. Residues, ends and D or L forms follow the SMILES beside them. *: point of attachment. Cbz = O=C(OCc1ccccc1)*; Dap = NC[C@H](N)C(=O)O
readout: Ratio Ki
Reply with just the number.

CC(=O)NC[C@@H](C=O)NC(=O)[C@H](Cc1ccccc1)NC(=O)[C@H](CC(C)C)NC(=O)OCc1ccccc1 (Cbz-Leu-Phe-[Dap](Ac)-aldehyde) : 10
CC(C)C[C@H](NC(=O)OCc1ccccc1)C(=O)N[C@@H](Cc1ccccc1)C(=O)N[C@H](C=O)CCC(=O)N(C)C (Cbz-Leu-Phe-Glu(NMe2)-aldehyde) : 60

Which measured Ratio Ki value corresponds to CC(C)C[C@H](NC(=O)[C@H](C)NC(=O)OCc1ccccc1)C(=O)N[C@H](C=O)CCC(=O)N(C)C (Cbz-Ala-Leu-Glu(NMe2)-aldehyde) ? 10

Would you kindly repeat that for CC(C)C[C@H](NC(=O)[C@H](CCC(N)=O)NC(=O)OCc1ccccc1)C(=O)N[C@H](C=O)CCC(=O)N(C)C (Cbz-Gln-Leu-Glu(NMe2)-aldehyde) ? 10
